system: MATIN; experiment: Pre-emergence herbicidal action against MATIN; assay type: in vivo, Matricaria inodora; settings: 1280 g/ha, scored visually after about 3 weeks vs untreated controls
Measure Name: Pre-emergence action against MATIN in % (%)

{"Compound": "COC(=O)COc1nn(-c2ccc(Cl)cc2)c(-c2cccc(F)c2)c1C#N", "Unit Name": "%", "Numeric Result": 80}
{"Compound": "COC(=O)COc1nn(-c2cccc(F)c2)c(-c2ccccc2)c1Cl", "Unit Name": "%", "Numeric Result": 90}
{"Compound": "O=C(O)COc1nn(-c2ccccc2)c(-c2ccc(F)cc2)c1Br", "Unit Name": "%", "Numeric Result": 100}
{"Compound": "COC(=O)COc1nn(-c2cccc(Cl)c2)c(-c2ccc(F)c(F)c2)c1Cl", "Unit Name": "%", "Numeric Result": 90}
{"Compound": "COC(=O)COc1nn(-c2cccc(F)c2)c(-c2ccc(F)cc2)c1C#N", "Unit Name": "%", "Numeric Result": 100}
{"Compound": "COC(=O)COc1nn(-c2ccccc2)c(-c2cccc(F)c2)c1Cl", "Unit Name": "%", "Numeric Result": 100}
{"Compound": "CCOC(=O)COc1nn(-c2ccc(F)cc2)c(-c2ccccc2)c1Br", "Unit Name": "%", "Numeric Result": 80}
{"Compound": "COC(=O)COc1nn(-c2ccccc2)c(-c2ccc(F)cc2)c1Cl", "Unit Name": "%", "Numeric Result": 90}
{"Compound": "COC(=O)C(C)Oc1nn(-c2ccccc2F)c(-c2ccccc2)c1C#N (stereo not shown)", "Unit Name": "%", "Numeric Result": 90}
{"Compound": "COC(=O)COc1nn(-c2ccccc2F)c(-c2ccccc2)c1C#N", "Unit Name": "%", "Numeric Result": 90}
{"Compound": "COC(=O)COc1nn(-c2cccc(F)c2)c(-c2cccc(F)c2)c1Cl", "Unit Name": "%", "Numeric Result": 100}
{"Compound": "CCOC(=O)COc1nn(-c2ccccc2)c(-c2ccccc2)c1Br", "Unit Name": "%", "Numeric Result": 90}
{"Compound": "COC(=O)COc1nn(-c2cccc(Cl)c2)c(-c2cccc(F)c2)c1C#N", "Unit Name": "%", "Numeric Result": 90}

* * *

tested on: STEME; experiment: Post-emergence herbicidal action against STEME; assay type: in vivo, Stellaria media; settings: 1280 g/ha, visual rating about 3 weeks after treatment

{"Compound": "CCNC.O=C(O)COc1nn(-c2cccc(F)c2)c(-c2ccccc2)c1I [II-08]", "Post-emergence action against STEME in % (%)": 90}
{"Compound": "O=C(O)COc1nn(-c2ccc(F)cc2)c(-c2cccc(F)c2)c1Br [I-119]", "Post-emergence action against STEME in % (%)": 90}
{"Compound": "O=C(COc1nn(-c2ccc(F)cc2)c(-c2cccc(F)c2)c1Cl)NCC1CC1 [III-025]", "Post-emergence action against STEME in % (%)": 100}
{"Compound": "C[Si](C)(C)COC(=O)COc1nn(-c2ccccc2F)c(-c2ccc(F)c(F)c2)c1Br [I-102]", "Post-emergence action against STEME in % (%)": 100}
{"Compound": "COC(=O)COc1nn(-c2cccc(F)c2)c(-c2ccccc2)c1C#N [I-023]", "Post-emergence action against STEME in % (%)": 80}
{"Compound": "O=C(O)COc1nn(-c2ccccc2F)c(-c2ccc(F)c(F)c2)c1Br [I-136]", "Post-emergence action against STEME in % (%)": 100}
{"Compound": "COC(=O)C(C)Oc1nn(-c2ccccc2F)c(-c2ccc(F)c(F)c2)c1Br (stereo not drawn) [I-170]", "Post-emergence action against STEME in % (%)": 100}
{"Compound": "CC(Oc1nn(-c2ccccc2)c(-c2ccc(F)cc2)c1Cl)C(=O)O (stereo not drawn) [I-139]", "Post-emergence action against STEME in % (%)": 90}
{"Compound": "COC(=O)COc1nn(-c2cccc(F)c2)c(-c2cccc(F)c2)c1Cl [I-003]", "Post-emergence action against STEME in % (%)": 80}
{"Compound": "O=C(O)COc1nn(-c2c(F)cccc2F)c(-c2ccc(F)c(F)c2)c1Br [I-137]", "Post-emergence action against STEME in % (%)": 100}
{"Compound": "C=CCNC(=O)COc1nn(-c2ccc(F)cc2)c(-c2cccc(F)c2)c1Cl [III-022]", "Post-emergence action against STEME in % (%)": 100}
{"Compound": "COC(=O)[C@@H](C)Oc1nn(-c2cccc(F)c2)c(-c2cccc(F)c2)c1C#N [I-125]", "Post-emergence action against STEME in % (%)": 90}

* * *

Quick list: Post-emergence action against ALOMY in % per entry.
system: ALOMY; test: Post-emergence herbicidal action against ALOMY; format: in vivo, Alopecurus myosuroides; details: 1280 g/ha, post-emergence at one-leaf stage, rated visually after about 3 weeks vs untreated controls
Measure Name: Post-emergence action against ALOMY in %

{"Compound": "COC(=O)COc1nn(-c2ccccc2)c(-c2cccc(F)c2)c1C#N [I-021]", "Measure Name": "Post-emergence action against ALOMY in %", "Result": "80%"}
{"Compound": "COC(=O)C(C)Oc1nn(-c2cccc(F)c2)c(-c2cccc(F)c2)c1C#N (centres unmarked) [I-067]", "Measure Name": "Post-emergence action against ALOMY in %", "Result": "100%"}
{"Compound": "COC(=O)COc1nn(-c2cccc(Cl)c2)c(-c2ccc(F)c(F)c2)c1C#N [I-051]", "Measure Name": "Post-emergence action against ALOMY in %", "Result": "80%"}
{"Compound": "COC(=O)COc1nn(-c2ccc(F)cc2)c(-c2ccc(F)cc2)c1Cl [I-006]", "Measure Name": "Post-emergence action against ALOMY in %", "Result": "80%"}
{"Compound": "COC(=O)COc1nn(-c2ccccc2F)c(-c2ccccc2)c1C#N [I-022]", "Measure Name": "Post-emergence action against ALOMY in %", "Result": "80%"}

* * *

System: STEME
Assay: Post-emergence herbicidal action against STEME
Format: in vivo, Stellaria media
Conditions: 1280 g/ha, visual rating about 3 weeks after treatment
Experimental: [table] Seeds of mono- and dicotyledonous weed plants are placed in plastic pots in sandy loam soil (twin sowing with one species each of mono- or dicotyledonous weed plants per pot), covered with soil and cultivated in a greenhouse under controlled growth conditions. 2 to 3 weeks after sowing, the test plants are treated at the one-leaf stage. […]

{"Molecule": "CCOC(=O)COc1nn(-c2ccc(F)cc2F)c(-c2ccccc2)c1Cl [I-100]", "Tested Target": "STEME", "Post-emergence action against STEME in % / %": 90}
{"Molecule": "COC(=O)C(C)Oc1nn(-c2ccccc2)c(-c2cccc(F)c2)c1Cl (stereo not drawn) [I-164]", "Tested Target": "STEME", "Post-emergence action against STEME in % / %": 100}
{"Molecule": "C1COCCN1.O=C(O)COc1nn(-c2cccc(F)c2)c(-c2ccccc2)c1I [II-04]", "Tested Target": "STEME", "Post-emergence action against STEME in % / %": 100}
{"Molecule": "CCOC(=O)COc1nn(-c2ccccc2F)c(-c2ccc(F)c(F)c2)c1Br [I-133]", "Tested Target": "STEME", "Post-emergence action against STEME in % / %": 100}
{"Molecule": "C=CCNC(=O)COc1nn(-c2ccc(F)cc2)c(-c2cccc(F)c2)c1I [III-008]", "Tested Target": "STEME", "Post-emergence action against STEME in % / %": 100}
{"Molecule": "COC(=O)COc1nn(-c2ccc(F)cc2)c(-c2ccc(F)cc2)c1Cl [I-006]", "Tested Target": "STEME", "Post-emergence action against STEME in % / %": 80}
{"Molecule": "CC(C)(C)N.O=C(O)COc1nn(-c2cccc(F)c2)c(-c2ccccc2)c1I [II-09]", "Tested Target": "STEME", "Post-emergence action against STEME in % / %": 100}
{"Molecule": "CCOC(=O)COc1nn(-c2ccc(F)cc2F)c(-c2ccc(F)cc2)c1Br [I-081]", "Tested Target": "STEME", "Post-emergence action against STEME in % / %": 100}
{"Molecule": "CCOC(=O)COc1nn(-c2ccc(F)cc2F)c(-c2ccc(F)cc2F)c1Br [I-088]", "Tested Target": "STEME", "Post-emergence action against STEME in % / %": 100}
{"Molecule": "COC(=O)COc1nn(-c2ccccc2)c(-c2ccc(F)cc2)c1Cl [I-008]", "Tested Target": "STEME", "Post-emergence action against STEME in % / %": 90}
{"Molecule": "COC(=O)COc1nn(-c2cccc(Cl)c2)c(-c2cccc(F)c2)c1C#N [I-046]", "Tested Target": "STEME", "Post-emergence action against STEME in % / %": 80}
{"Molecule": "COC(=O)[C@@H](C)Oc1nn(-c2ccccc2)c(-c2ccc(F)cc2)c1C#N [I-130]", "Tested Target": "STEME", "Post-emergence action against STEME in % / %": 100}
{"Molecule": "COC(=O)C(C)Oc1nn(-c2ccccc2F)c(-c2ccc(F)c(F)c2)c1C#N (stereo not drawn) [I-171]", "Tested Target": "STEME", "Post-emergence action against STEME in % / %": 100}
{"Molecule": "COC(=O)COc1nn(-c2ccccc2F)c(-c2ccc(F)c(F)c2)c1Br [I-055]", "Tested Target": "STEME", "Post-emergence action against STEME in % / %": 100}
{"Molecule": "CC(Oc1nn(-c2ccccc2)c(-c2ccc(F)cc2)c1Br)C(=O)O (stereo not drawn) [I-138]", "Tested Target": "STEME", "Post-emergence action against STEME in % / %": 100}
